Hello, the source for this data is patent US11819533B2, in case you need it.

assay: Solubility of CD101 acetate in various media; format: physicochemical; conditions: saline or isotonic; 0.09% Saline; maximum solubility not reached; read-out: Solubility
Starred links: 1 amine or outer side, 2 acyl side, 3 side chain; linkers in the order of their positions; H or OH if unused. Positions of bridges follow the written chain, without caps; N, C: chain ends. Non-standard residues stand in square brackets, D forms with d. Residues, ends and D or L forms follow the SMILES beside them. *: point of attachment. Orn(4R-OH,5R-OCH2CH2NMe3+) = C[N+](C)(C)CCO[C@@H](N[*:3])[C@H](O)C[C@H](N[*:1])C(=O)[*:2]; pTerphenylCO(4''-OnC5H11) = CCCCCOc1ccc(-c2ccc(-c3ccc(C(=O)*)cc3)cc2)cc1; hTyr(3S-OH,4S-OH) = N[C@H](C(=O)O)[C@H](O)[C@@H](O)c1ccc(O)cc1; Pro(3S-OH,4S-Me) = C[C@H]1CN[C@H](C(=O)O)[C@H]1O; Hyp = O=C(O)[C@@H]1C[C@@H](O)CN1
readoutType: solubility

Req: What does the data say about its solubility? Entry: CCCCCOc1ccc(-c2ccc(-c3ccc(C(=O)N[C@H]4C[C@@H](O)[C@@H](OCC[N+](C)(C)C)NC(=O)[C@@H]5[C@@H](O)[C@@H](C)CN5C(=O)[C@H]([C@@H](C)O)NC(=O)[C@H]([C@H](O)[C@@H](O)c5ccc(O)cc5)NC(=O)[C@@H]5C[C@@H](O)CN5C(=O)[C@H]([C@@H](C)O)NC4=O)cc3)cc2)cc1 [CD101 acetate] ({pTerphenylCO(4''-OnC5H11)}-[Orn(4R-OH,5R-OCH2CH2NMe3+)]T[Hyp][hTyr(3S-OH,4S-OH)]T[Pro(3S-OH,4S-Me)]; lactam 1-C)
Resp: > 1400 µg/mL

* * *

Assay: Solubility of CD101 acetate in various media
Type: physicochemical
Conditions: saline or isotonic; 0.225% Saline (USP); maximum solubility not reached; read-out: Solubility
Description: Table 1 below provides the solubility of CD101 acetate in different solutions.
Starred links: 1 amine or outer side, 2 acyl side, 3 side chain; linkers in the order of their positions; H or OH if unused. Positions of bridges follow the written chain, without caps; N, C: chain ends. Non-standard residues stand in square brackets, D forms with d. Residues, ends and D or L forms follow the SMILES beside them. *: point of attachment. Orn(4R-OH,5R-OCH2CH2NMe3+) = C[N+](C)(C)CCO[C@@H](N[*:3])[C@H](O)C[C@H](N[*:1])C(=O)[*:2]; pTerphenylCO(4''-OnC5H11) = CCCCCOc1ccc(-c2ccc(-c3ccc(C(=O)*)cc3)cc2)cc1; hTyr(3S-OH,4S-OH) = N[C@H](C(=O)O)[C@H](O)[C@@H](O)c1ccc(O)cc1; Pro(3S-OH,4S-Me) = C[C@H]1CN[C@H](C(=O)O)[C@H]1O; Hyp = O=C(O)[C@@H]1C[C@@H](O)CN1
readoutType: solubility

Req: I would be grateful if you could share the reported solubility for CCCCCOc1ccc(-c2ccc(-c3ccc(C(=O)N[C@H]4C[C@@H](O)[C@@H](OCC[N+](C)(C)C)NC(=O)[C@@H]5[C@@H](O)[C@@H](C)CN5C(=O)[C@H]([C@@H](C)O)NC(=O)[C@H]([C@H](O)[C@@H](O)c5ccc(O)cc5)NC(=O)[C@@H]5C[C@@H](O)CN5C(=O)[C@H]([C@@H](C)O)NC4=O)cc3)cc2)cc1 [CD101 acetate] ({pTerphenylCO(4''-OnC5H11)}-[Orn(4R-OH,5R-OCH2CH2NMe3+)]T[Hyp][hTyr(3S-OH,4S-OH)]T[Pro(3S-OH,4S-Me)]; lactam 1-C) .
Resp: > 1200 µg/mL
